Measured values drawn from patent US20240415918A1 for this set.

# study system: CCK-B receptors (CHO-CCK) (Homo sapiens, UniProt P32239)
# Construct: expressed in transfected cells; host or cells: CHO (CHO-CCK model cells)
# protocol: Calcium flux (Fluo-8) antagonist test on CHO-CCK model cells in presence of CCK8
# Assay type: cell-based
# details: compound together with 10 nM CCK8
Where a SMILES comes first, the peptide text is derived from it. [ ]: non-standard residue; d: D form. Phe(3-Br) = N[C@@H](Cc1cccc(Br)c1)C(=O)O
In this section we review reported EC50 values for a set of compounds.
Numbers only; they are read as µM.

The cases that follow already have their EC50 on record.
CSCC[C@H](NC(=O)[C@H](Cc1c[nH]c2ccccc12)NC(C)=O)C(=O)N[C@@H](CC(=O)O)C(=O)N[C@@H](CC(C)C)C(N)=O [HT-192, Ac-Trp-Met-Asp-Leu-NH2] (Ac-WMDL-NH2): 8.76
CS(=O)(=O)CC[C@H](NC(=O)[C@H](N)Cc1c[nH]c2ccccc12)C(=O)N[C@@H](CC(=O)O)C(=O)N[C@@H](Cc1cc(Cl)cc(Cl)c1)C(N)=O [HT-72, D-Trp-Met(O2)-Asp-Phe(3,5-DiCl)-NH2]: 2.62
CSCC[C@H](NC(=O)[C@@H](Cc1c[nH]c2ccccc12)NC(C)=O)C(=O)N[C@@H](CCCCN)C(=O)N[C@@H](Cc1cccc(Br)c1)C(N)=O [HT-188, Ac-D-Trp-Met-Lys-Phe(3-Br)-NH2] (Ac-[dW]MK[Phe(3-Br)]-NH2): 7.55

# input for lookup
Query: EC50; subject: CS(=O)(=O)CC[C@H](NC(=O)[C@H](N)Cc1c[nH]c2ccccc12)C(=O)N[C@@H](CC(=O)O)C(=O)N[C@@H](Cc1cccc(Cl)c1)C(N)=O [HT-60, D-Trp-Met(O2)-Asp-Phe(3-Cl)-NH2] 6.61

---

# study system: CCK-B receptors (CHO-CCK) (Homo sapiens, UniProt P32239)
# Construct: expressed in transfected cells; host or cells: CHO (CHO-CCK model cells)
# protocol: Calcium flux (Fluo-8) agonist test on CHO-CCK model cells
# Assay type: cell-based
# details: compound at 10 μM; percentage of signal of 20 nM CCK8 alone
Classes are defined on Agonistic Activity (%) at 10 μM with ranges band A = under 4%, band B = from 4% up to 60%, band C = 60% and over

Worked cases, answers included:
CS(=O)(=O)CC[C@H](NC(=O)[C@H](N)Cc1c[nH]c2ccccc12)C(=O)N[C@@H](CC(=O)O)C(=O)N[C@@H](Cc1cccc(I)c1)C(N)=O: band B
COC(=O)C[C@H](NC(=O)[C@H](CCS(C)(=O)=O)NC(=O)[C@H](N)Cc1c[nH]c2ccccc12)C(=O)N[C@@H](Cc1cccc(Cl)c1)C(N)=O: band A
C[S+]([O-])CC[C@H](NC(=O)[C@H](N)Cc1c[nH]c2ccccc12)C(=O)N[C@@H](CC(=O)O)C(=O)N[C@@H](Cc1ccccc1F)C(N)=O (stereo partly drawn): band B
CSCC[C@H](NC(=O)[C@H](N)Cc1c[nH]c2ccccc12)C(=O)N[C@@H](CC(=O)O)C(=O)N[C@@H](Cc1cc(F)c(F)c(F)c1)C(N)=O: band C
CSCC[C@H](NC(=O)[C@H](N)Cc1c[nH]c2ccccc12)C(=O)N[C@@H](CC(=O)O)C(=O)N[C@@H](Cc1ccc(C#N)cc1)C(N)=O: band B

Consider `COC(=O)C[C@H](NC(=O)[C@H](CCSC)NC(=O)[C@H](N)Cc1c[nH]c2ccccc12)C(=O)N[C@@H](Cc1cccc(Br)c1)C(N)=O` . To which Agonistic Activity (%) at 10 μM class does it belong? band B

Which class holds `CSCC[C@H](NC(=O)[C@H](N)Cc1c[nH]c2ccccc12)C(=O)N[C@@H](CC(=O)O)C(=O)N[C@@H](Cc1ccc(Cl)cc1)C(N)=O` ? band C

Band for C[S+]([O-])CC[C@H](NC(=O)[C@H](N)Cc1c[nH]c2ccccc12)C(=O)N[C@@H](CC(=O)OCCNc1cccc2c(O)cccc12)C(=O)N[C@@H](Cc1ccc(F)cc1)C(N)=O (stereo partly drawn) [HT-155, D-Trp-Met(O)-Asp(EDANS)-Phe(4-F)-NH2] ? band A

Which of the defined bands does the recorded Agonistic Activity (%) at 10 μM of `COC(=O)C[C@H](NC(=O)[C@H](CCS(C)(=O)=O)NC(=O)[C@H](N)Cc1c[nH]c2ccccc12)C(=O)N[C@@H](Cc1ccc(I)cc1)C(N)=O` sit within? band B

---

# study system: CCK-B receptors (CHO-CCK) (Homo sapiens, UniProt P32239)
# Construct: expressed in transfected cells; host or cells: CHO (CHO-CCK model cells)
# protocol: Calcium flux (Fluo-8) antagonist test on CHO-CCK model cells in presence of CCK8
# Assay type: cell-based
# details: in presence of 10 nM CCK8
Where a SMILES comes first, the peptide text is derived from it. [ ]: non-standard residue; d: D form. Phe(3-Br) = N[C@@H](Cc1cccc(Br)c1)C(=O)O; Nle = CCCC[C@H](N)C(=O)O
metric name: EC50 (nM)
Number in nM, nothing else.

CCCC[C@H](NC(=O)[C@H](Cc1c[nH]c2ccccc12)NC(=O)CNC(C)=O)C(=O)N[C@@H](CC(=O)O)C(=O)N[C@@H](Cc1cccc(Br)c1)C(N)=O [HT-215, Ac-Gly-Trp-Nle-Asp-Phe(3-Br)-NH2] (Ac-GW[Nle]D[Phe(3-Br)]-NH2): 237

Proceed to the following item.
Requested field: EC50. Item: CCCC[C@H](NC(=O)[C@@H](Cc1cccc(Br)c1)NC(C)=O)C(=O)N[C@@H](CC(=O)O)C(=O)N[C@@H](Cc1cccc(Br)c1)C(N)=O [HT-236, Ac-Phe(3-Br)-Nle-Asp-Phe(3-Br)-NH2] 357

---

# study system: CCK-B receptors (CHO-CCK) (Homo sapiens)
# Construct: expressed in transfected cells; host or cells: CHO (CHO-CCK model cells)
# protocol: Calcium flux (Fluo-8) agonist test on CHO-CCK model cells
# Assay type: cell-based
# details: CHO-CCK cells, Fluo-8 calcium flux; 100% control = 20 nM CCK8
Where a SMILES comes first, the peptide text is derived from it. [ ]: non-standard residue; d: D form. The star is where a group is joined. Trp(5-OH) = N[C@@H](Cc1c[nH]c2ccc(O)cc12)C(=O)O; NMeW = CN[C@@H](Cc1c[nH]c2ccccc12)C(=O)O; Phe(3-Br) = N[C@@H](Cc1cccc(Br)c1)C(=O)O; Fmoc = O=C(OCC1c2ccccc2-c2ccccc21)*; Nle = CCCC[C@H](N)C(=O)O
metric name: EC50 (nM)
Respond numerically; units are nM and should not be typed.

Solved cases (3 shown):
CCCC[C@H](NC(=O)[C@H](Cc1c[nH]c2ccccc12)N(C)C(=O)OCC1c2ccccc2-c2ccccc21)C(=O)N[C@@H](CC(=O)O)C(=O)N[C@@H](Cc1cccc(Br)c1)C(N)=O [HT-268, Fmoc-(N-Me-Trp)-Nle-Asp-Phe(3-Br)-NH2] (Fmoc-[NMeW][Nle]D[Phe(3-Br)]-NH2): 1.3
CCCC[C@H](NC(=O)[C@H](Cc1c[nH]c2ccccc12)NC(C)=O)C(=O)N[C@@H](CCC(=O)O)C(=O)N[C@@H](Cc1cccc(Br)c1)C(N)=O [HT-238, Ac-D-Trp-Nle-Glu-Phe(3-Br)-NH2]: 34.4
CC(C)C[C@H](NC(=O)[C@H](N)Cc1c[nH]c2ccccc12)C(=O)N[C@@H](CC(=O)O)C(=O)N[C@@H](Cc1cccc(Br)c1)C(=O)N[C@H](C)C(N)=O [HT-289, D-Trp-Val-Asp-Phe(3-Br)-D-Ala-NH2]: 3190

Alright, here's another molecule for you.
Recorded EC50 for CCCC[C@H](NC(=O)[C@@H](Cc1c[nH]c2ccccc12)NC(C)=O)C(=O)N[C@@H](CC(=O)O)C(=O)N[C@@H](Cc1c[nH]c2ccc(O)cc12)C(N)=O [HT-226, Ac-D-Trp-Nle-Asp-(5-HTP)-NH2] (Ac-[dW][Nle]D[Trp(5-OH)]-NH2) , please? 14200

---

# study system: CCK-B receptors (CHO-CCK) (Homo sapiens)
# Construct: expressed in transfected cells; host or cells: CHO (CHO-CCK model cells)
# Sequence (P32239 1-447): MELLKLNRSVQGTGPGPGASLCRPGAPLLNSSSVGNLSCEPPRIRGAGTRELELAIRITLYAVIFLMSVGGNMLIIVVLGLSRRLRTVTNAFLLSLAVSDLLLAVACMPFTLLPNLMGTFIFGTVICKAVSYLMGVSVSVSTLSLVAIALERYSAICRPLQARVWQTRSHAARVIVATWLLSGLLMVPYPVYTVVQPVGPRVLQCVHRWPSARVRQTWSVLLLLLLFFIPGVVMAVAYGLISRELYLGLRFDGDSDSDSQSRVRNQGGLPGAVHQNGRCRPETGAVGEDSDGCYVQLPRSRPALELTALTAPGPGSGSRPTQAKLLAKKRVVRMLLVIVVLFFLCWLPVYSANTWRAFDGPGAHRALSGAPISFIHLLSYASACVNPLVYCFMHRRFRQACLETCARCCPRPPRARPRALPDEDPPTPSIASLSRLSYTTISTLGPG
# protocol: Calcium flux (Fluo-8) agonist test on CHO-CCK model cells
# Type: cell-based
# details: CHO-CCK cells, Fluo-8 calcium flux; 100% control = 20 nM CCK8
Where a SMILES comes first, the peptide text is derived from it. [ ]: non-standard residue; d: D form. Phe(3-Br) = N[C@@H](Cc1cccc(Br)c1)C(=O)O; dAoc(2) = CCCCCC[C@@H](N)C(=O)O; Nle = CCCC[C@H](N)C(=O)O
metric name: log10 of EC50 (log10 of the value in nM)
Each number you see is log10 of EC50, and the unit inside the log is nM.

CCCCCCC[C@H](NC(=O)[C@H](Cc1c[nH]c2ccccc12)NC(C)=O)C(=O)N[C@@H](CC(=O)O)C(=O)N[C@@H](Cc1cccc(Br)c1)C(N)=O: 2.20
CCCC[C@H](NC(=O)[C@@H](Cc1cn(C)c2ccccc12)NC(C)=O)C(=O)N[C@@H](CC(=O)O)C(=O)N[C@@H](Cc1cccc(Br)c1)C(N)=O: 0.28
CCCC[C@H](NC(=O)[C@@H](Cc1cn(C)c2ccccc12)NC(C)=O)C(=O)N[C@@H](CC(=O)O)C(=O)N[C@@H](Cc1cn(C)c2ccccc12)C(N)=O: 2.58

Recorded log10 of EC50 for `CCCC[C@H](NC(=O)[C@H](Cc1c[nH]c2ccccc12)NC(C)=O)C(=O)N[C@@H](CC(=O)O)C(=O)N[C@@H](Cc1c(C)[nH]c2ccccc12)C(N)=O` , please? 3.91

Sample `CCCC[C@H](NC(=O)[C@@H](Cc1c(C)[nH]c2ccccc12)NC(C)=O)C(=O)N[C@@H](CC(=O)O)C(=O)N[C@@H](Cc1cn(C)c2ccccc12)C(N)=O` — what was its log10 of EC50? 3.74

What value of log10 of EC50 has been reported for the following compound? `CCCC[C@H](NC(=O)[C@@H](Cc1c(C)[nH]c2ccccc12)NC(C)=O)C(=O)N[C@@H](CCC(=O)O)C(=O)N[C@@H](Cc1cccc(Br)c1)C(N)=O` 3.86

Given CCCCCC[C@@H](NC(C)=O)C(=O)N[C@@H](CCCC)C(=O)N[C@@H](CCC(=O)O)C(=O)N[C@@H](Cc1cccc(Br)c1)C(N)=O [HT-263, Ac-Oa-Nle-Glu-Phe(3-Br)-NH2] (Ac-[dAoc(2)][Nle]E[Phe(3-Br)]-NH2) , state its recorded log10 of EC50. 4.81
